Biological target: Sodium- and chloride-dependent glycine transporter 2 (Homo sapiens)
Sequence (Q9Y345 whole entry): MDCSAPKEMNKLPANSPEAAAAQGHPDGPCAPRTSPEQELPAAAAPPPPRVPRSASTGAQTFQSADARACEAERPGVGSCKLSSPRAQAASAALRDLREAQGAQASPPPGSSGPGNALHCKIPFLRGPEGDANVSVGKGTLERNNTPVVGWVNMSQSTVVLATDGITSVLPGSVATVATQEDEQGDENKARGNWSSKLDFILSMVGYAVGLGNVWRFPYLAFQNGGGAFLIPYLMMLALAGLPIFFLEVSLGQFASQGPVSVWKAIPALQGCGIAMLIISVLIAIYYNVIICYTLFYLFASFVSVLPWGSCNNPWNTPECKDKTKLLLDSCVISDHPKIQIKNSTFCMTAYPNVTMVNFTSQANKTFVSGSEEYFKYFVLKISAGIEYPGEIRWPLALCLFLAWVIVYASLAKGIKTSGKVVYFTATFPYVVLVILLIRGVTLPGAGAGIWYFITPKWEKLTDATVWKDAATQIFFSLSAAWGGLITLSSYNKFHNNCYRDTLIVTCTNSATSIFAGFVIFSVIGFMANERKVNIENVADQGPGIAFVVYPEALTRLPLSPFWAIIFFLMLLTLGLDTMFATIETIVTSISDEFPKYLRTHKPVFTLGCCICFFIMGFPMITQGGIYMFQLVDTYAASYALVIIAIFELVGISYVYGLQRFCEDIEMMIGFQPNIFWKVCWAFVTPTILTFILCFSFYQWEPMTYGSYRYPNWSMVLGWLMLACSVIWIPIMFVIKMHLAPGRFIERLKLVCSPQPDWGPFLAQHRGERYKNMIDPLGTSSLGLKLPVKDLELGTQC
Experiment: Inhibition of recombinant human GlyT2a expressed in Xenopus laevis oocytes assessed as reduction in channel current by two-electrode voltage clamp electrophysiology
Type: cell-based
pIC50: −log10 of the molar value.
Dear colleague, classification is by pIC50, with ranges listed here: 1: < 6; 2: ≥ 6 and < 7; 3: ≥ 7

Qu. In plain terms, what class is "CCCCCCCC/C=C\CCCCCCCC(=O)N[C@H](Cc1ccccc1)C(=O)O" ?
Ans. 1

* * *

Each record here notes measured IC50.
Molecular target: Sodium- and chloride-dependent glycine transporter 2 (Homo sapiens, UniProt Q9Y345)
Assay: Inhibition of recombinant human GlyT2a expressed in Xenopus laevis oocytes assessed as reduction in channel current by two-electrode voltage clamp electrophysiology
Type: cell-based
Unit nM implied. Number only.

Qu. Value lookup for IC50; key = "CCCCCCCC/C=C\CCCCCCCC(=O)N[C@H](CCCNC(=N)N)C(=O)O"
Ans. 69.2

Qu. // next record "CCCCCCCC/C=C\CCCCCCCC(=O)N[C@@H](CCCNC(=N)N)C(=O)O"
Ans. 47.9

Qu. // next record "CCCCCCCC/C=C\CCCCCCCC(=O)NCCCCCN"
Ans. 560

* * *

Target: Sodium- and chloride-dependent glycine transporter 2 (Homo sapiens, UniProt Q9Y345)
Experiment: Inhibition of recombinant human GlyT2a expressed in Xenopus laevis oocytes assessed as reduction in channel current by two-electrode voltage clamp electrophysiology
Assay type: cell-based
Each record here notes measured pIC50.
pIC50 here is simply -log10 of the concentration when that concentration is written in mol/L.

Example entries and their recorded answers appear below.
Qu. Value lookup for pIC50; key = "CCCCCCCC/C=C\CCCCCCCC(=O)N[C@@H](CC(=O)O)C(=O)O"
Ans. 6.06

Qu. // next record "CCCCCCCC/C=C\CCCCCCCC(=O)N[C@H](C(=O)O)C(C)C"
Ans. 5.93

Qu. // next record "CCCCCCCC/C=C\CCCCCCCC(=O)N[C@H](CO)C(=O)O"
Ans. 7.19

Next:
Qu. Value lookup for pIC50; key = "CCCCCCCC/C=C\CCCCCCCC(=O)N[C@@H](CCCN)C(=O)O"
Ans. 7.50
